# measuredOn: Lactoylglutathione lyase (Saccharomyces cerevisiae)
# experiment: Ability to inhibit yeast glyoxalase I enzyme in 0.05 M phosphate buffer, pH 6.6, 30 degree C
measure: Ki

The recorded Ki for entry NC(CNC(=O)NC(CSCc1ccc(Br)cc1)C(=O)NCC(=O)O)C(=O)O (stereo unspecified) equals 15.5 µM

All values here come from BindingDB's records for doi:10.1016/s0960-894x(99)00097-9.
